tested on: PPARg:RXRa 270nM:90nM, anti-RXR (NR concentration 270 nM, RXRa partner concentration 90 nM); experiment: PBM binding z-score (relative to random genomic background probes); higher = stronger binding; sequences stand for … in GC…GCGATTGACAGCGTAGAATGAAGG
Classification field: Satisfied = PBM binding z-score at or over 7; Not satisfied = PBM binding z-score under 7.

*Q* # check: PBM binding z-score of TTGCCTAGGTCATTGGGCCAGTATAGTACGCATC is greater than or equal to 7
*A* Not satisfied

*Q* Does the reported PBM binding z-score for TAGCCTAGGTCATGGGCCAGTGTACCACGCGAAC fall at or above the 7 mark?
*A* Not satisfied

*Q* Is PBM binding z-score at least 7? Consider CAAAATAGGTCACCGGAAGGTCAAAGTCCGCATG
*A* Satisfied

*Q* Item AATAAAGGGTCATCGTAGGCCAGAGTACGCACAG with PBM binding z-score of 7 or above?
*A* Not satisfied

*Q* Record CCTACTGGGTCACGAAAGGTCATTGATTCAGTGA ; criterion: PBM binding z-score no lower than 7. Met?
*A* Satisfied

*Q* Given the entry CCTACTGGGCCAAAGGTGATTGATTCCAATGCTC , answer whether its PBM binding z-score meets or surpasses 7.
*A* Satisfied

*Q* Confirm if PBM binding z-score reported for the sequence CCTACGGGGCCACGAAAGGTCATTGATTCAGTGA is 7 or above.
*A* Not satisfied

*Q* Could you please find out whether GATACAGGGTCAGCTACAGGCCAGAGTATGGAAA has PBM binding z-score that meets 7 or exceeds it?
*A* Not satisfied

*Q* Determine whether this sequence has PBM binding z-score no lower than 7: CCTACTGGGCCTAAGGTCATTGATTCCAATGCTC
*A* Satisfied

*Q* Can CGAACTAGGTCATCCAGGTCAGTGAATACATTGA be said to have PBM binding z-score at or above 7?
*A* Not satisfied

*Q* Say whether AGAATGAGGTTACCAAAGGTCAGGGAAACGCTTG shows PBM binding z-score of 7 or more.
*A* Not satisfied

*Q* // inclusive: PBM binding z-score at least 7? input: ACTTAGGGGTCAACGAGGTTATAGCACGCGTATA
*A* Satisfied

*Q* Determine whether measured PBM binding z-score meets or exceeds 7 for ATTTGTAGGTTACATCCGGGTCATTCAGGCTATG
*A* Not satisfied

*Q* Can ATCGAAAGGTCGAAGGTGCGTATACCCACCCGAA be said to have PBM binding z-score at or above 7?
*A* Not satisfied

*Q* Determine whether measured PBM binding z-score meets or exceeds 7 for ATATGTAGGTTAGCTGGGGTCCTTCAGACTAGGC
*A* Not satisfied

*Q* Given the entry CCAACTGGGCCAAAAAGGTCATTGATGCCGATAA , answer whether its PBM binding z-score meets or surpasses 7.
*A* Not satisfied

*Q* Answer whether PBM binding z-score of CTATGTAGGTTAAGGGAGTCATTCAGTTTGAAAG is greater than or equal to 7.
*A* Not satisfied

*Q* Determine whether this sequence has PBM binding z-score no lower than 7: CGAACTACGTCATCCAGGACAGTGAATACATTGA
*A* Not satisfied

*Q* For this sequence, is measured PBM binding z-score 7 or higher? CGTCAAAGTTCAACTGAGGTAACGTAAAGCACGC
*A* Not satisfied

*Q* For this sequence, is measured PBM binding z-score 7 or higher? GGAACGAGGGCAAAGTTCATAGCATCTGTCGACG
*A* Satisfied

*Q* Identify whether the reported PBM binding z-score of the following sequence is 7 or greater: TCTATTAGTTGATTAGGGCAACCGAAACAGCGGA
*A* Not satisfied

*Q* // inclusive: PBM binding z-score at least 7? input: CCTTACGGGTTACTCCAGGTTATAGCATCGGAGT
*A* Not satisfied

*Q* Has CAAACTAGGTCAAAAGGTCAAAGTCCGCTTCCCG a recorded PBM binding z-score greater than or equal to 7?
*A* Satisfied

*Q* API: above_or_equal(metric=PBM binding z-score, cutoff=7) for item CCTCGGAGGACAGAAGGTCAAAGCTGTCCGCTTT
*A* Not satisfied

*Q* Is reported PBM binding z-score greater than or equal to 7 here: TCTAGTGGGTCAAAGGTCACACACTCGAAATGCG
*A* Satisfied

*Q* Does the sequence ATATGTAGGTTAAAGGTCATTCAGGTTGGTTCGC have recorded PBM binding z-score that is 7 or more?
*A* Satisfied

*Q* Identify whether the reported PBM binding z-score of the following sequence is 7 or greater: ATCGAAAGGTCAAAGGTGAGTATACCCACCCGAA
*A* Satisfied

*Q* Check if PBM binding z-score >= 7 (inclusive). Item: CCTAGTGGGCCAAGGTCATTGATCAGTCAAAGCA
*A* Not satisfied

*Q* Evaluate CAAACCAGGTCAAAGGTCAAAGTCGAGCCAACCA : PBM binding z-score at minimum 7?
*A* Satisfied

*Q* Does the reported PBM binding z-score for GCTAGTTGGTCAGTAAAAGGTGACACACCGGTCG fall at or above the 7 mark?
*A* Not satisfied

*Q* Entry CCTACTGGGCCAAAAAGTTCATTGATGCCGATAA : is its PBM binding z-score no less than 7?
*A* Not satisfied

*Q* Hi, just wondering whether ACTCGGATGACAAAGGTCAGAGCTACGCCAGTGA shows PBM binding z-score of 7 or higher.
*A* Not satisfied

*Q* Does the reported PBM binding z-score for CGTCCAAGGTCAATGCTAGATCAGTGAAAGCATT fall at or above the 7 mark?
*A* Not satisfied

*Q* Record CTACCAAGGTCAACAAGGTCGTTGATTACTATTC ; criterion: PBM binding z-score no lower than 7. Met?
*A* Not satisfied

*Q* Would you say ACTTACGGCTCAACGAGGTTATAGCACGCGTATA shows PBM binding z-score at minimum 7?
*A* Not satisfied

*Q* Does the reported PBM binding z-score for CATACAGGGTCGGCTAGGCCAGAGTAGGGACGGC fall at or above the 7 mark?
*A* Not satisfied

*Q* Record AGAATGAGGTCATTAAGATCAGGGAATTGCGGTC ; criterion: PBM binding z-score no lower than 7. Met?
*A* Not satisfied

*Q* Tell me whether PBM binding z-score is at least 7 here: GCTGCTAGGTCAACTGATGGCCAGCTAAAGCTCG
*A* Not satisfied

*Q* Hi, just wondering whether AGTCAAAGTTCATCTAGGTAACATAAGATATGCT shows PBM binding z-score of 7 or higher.
*A* Not satisfied

*Q* Item CAAACTAGGTCACGAGAGGTCAAAGTCGAATGAC with PBM binding z-score of 7 or above?
*A* Satisfied

*Q* Does PBM binding z-score meet or surpass 7 for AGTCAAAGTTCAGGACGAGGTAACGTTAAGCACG ?
*A* Not satisfied

*Q* Would you say CCTTAGGGGTCACTCCAGGTTATAGCATCGGAGT shows PBM binding z-score at minimum 7?
*A* Satisfied

*Q* Kindly determine if PBM binding z-score recorded for TAGCCTAGGTCACATCGGGCCAGTATACGCTATA is above or exactly 7.
*A* Not satisfied

*Q* Record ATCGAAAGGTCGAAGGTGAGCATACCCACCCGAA ; criterion: PBM binding z-score no lower than 7. Met?
*A* Not satisfied

*Q* State whether the measured PBM binding z-score reaches 7, counting equality as reaching it, for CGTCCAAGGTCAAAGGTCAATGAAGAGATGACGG
*A* Satisfied

*Q* Check if PBM binding z-score >= 7 (inclusive). Item: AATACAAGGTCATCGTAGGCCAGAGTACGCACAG
*A* Not satisfied

*Q* # check: PBM binding z-score of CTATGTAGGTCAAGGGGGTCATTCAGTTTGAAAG is greater than or equal to 7
*A* Satisfied

*Q* Please check the record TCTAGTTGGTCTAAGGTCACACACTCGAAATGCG and state if its PBM binding z-score is at or above 7.
*A* Not satisfied

*Q* // inclusive: PBM binding z-score at least 7? input: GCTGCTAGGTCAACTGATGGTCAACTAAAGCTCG
*A* Not satisfied

*Q* Has CAAACAAGGTCACGAAAGGTCAAAGTCGAATGAC a recorded PBM binding z-score greater than or equal to 7?
*A* Satisfied
